Please provide measured MIC for the entries that follow.
- Test system: Pseudomonas aeruginosa
- experiment summary: In vitro antibacterial activity against Pseudomonas aeruginosa 1771M
- Assay type: functional
Report only the number, with the unit µg/mL understood.

Query: Tell us which MIC value is on record for Cc1ccnc(SC[C@@H]2C[C@H](SC3=C(C(=O)O)N4C(=O)[C@H]([C@@H](C)O)[C@H]4[C@H]3C)CN2)n1
Result: 6.25

Query: Tell me measured MIC for C[C@@H](O)[C@H]1C(=O)N2C(C(=O)O)=C(S[C@@H]3CN[C@H](CSc4cnns4)C3)[C@H](C)[C@H]12 please.
Result: 0.195

Query: Identify measured MIC associated with C[C@@H](O)[C@H]1C(=O)N2C(C(=O)O)=C(S[C@@H]3CN[C@H](CSc4ncccc4O)C3)[C@H](C)[C@H]12
Result: 6.25

Sourced from ChEMBL document CHEMBL1133947
